Tested on: Aspergillus niger
assay_method_text: Antifungal activity against Aspergillus niger MTCC 9933 after 72 hrs
Type: functional
condition_parameters: MTCC 9933, 72 h
assay_readout: MIC90 (µg/mL)
The reply should contain only the number, in µg/mL.

Answered cases to consult:
Lab note: measured MIC90 of COC(=O)C[C@H](NC(=O)C(=O)c1c[nH]c2ccccc12)C(=O)OC was 64

Lab note: measured MIC90 of COC(=O)[C@H](Cc1ccc(O)cc1)NC(=O)C(=O)c1cn(Cc2cn(Cc3ccccc3)nn2)c2ccccc12 was 128

Lab note: measured MIC90 of O=C(O)C[C@H](NC(=O)C(=O)c1cn(Cc2cn(Cc3ccccc3)nn2)c2ccccc12)C(=O)O was 64

Next:
Lab note: measured MIC90 of O=C(O)CNC(=O)C(=O)c1cn(Cc2cn(Cc3ccccc3)nn2)c2ccccc12 was 128

Lab note: measured MIC90 of COC(=O)CNC(=O)C(=O)c1cn(Cc2cn(Cc3ccccc3)nn2)c2ccccc12 was 64

----------
Test system: Aspergillus niger
assay_method_text: Antifungal activity against Aspergillus niger MTCC 9933 after 72 hrs
Format: functional
condition_parameters: MTCC 9933, 72 h
# Lookup of reported MIC90 keyed by entry
The reply should contain only the number, in µg/mL.

Lab note: measured MIC90 of COC(=O)[C@H](Cc1ccc(OCc2cn(Cc3ccccc3)nn2)cc1)NC(=O)C(=O)c1cn(Cc2cn(Cc3ccccc3)nn2)c2ccccc12 was 64

Lab note: measured MIC90 of C#CCOc1ccc(C[C@H](NC(=O)C(=O)c2cn(CC#C)c3ccccc23)C(=O)OC)cc1 was 64

Next:
Lab note: measured MIC90 of C#CCn1cc(C(=O)C(=O)N[C@@H](Cc2ccc(O)cc2)C(=O)OC)c2ccccc21 was 128

Lab note: measured MIC90 of COC(=O)[C@H](Cc1c[nH]c2ccccc12)NC(=O)C(=O)c1cn(Cc2cn(Cc3ccccc3)nn2)c2ccccc12 was 64

----------
System: Aspergillus niger
assay_method_text: Antifungal activity against Aspergillus niger MTCC 9933 after 72 hrs
Format: functional
condition_parameters: MTCC 9933, 72 h
# Lookup of reported MIC90 keyed by entry

Lab note: measured MIC90 of COC(=O)CC[C@H](NC(=O)C(=O)c1c[nH]c2ccccc12)C(=O)OC was > 128 µg/mL

Lab note: measured MIC90 of COC(=O)CC[C@H](NC(=O)C(=O)c1cn(Cc2cn(Cc3ccccc3)nn2)c2ccccc12)C(=O)OC was 64 µg/mL

Lab note: measured MIC90 of OC(Cn1cncn1)(Cn1cncn1)c1ccc(F)cc1F [FLUCONAZOLE] was 8 µg/mL

Next:
Lab note: measured MIC90 of O=C(N[C@@H](Cc1ccc(OCc2cn(Cc3ccccc3)nn2)cc1)C(=O)O)C(=O)c1cn(Cc2cn(Cc3ccccc3)nn2)c2ccccc12 was 32 µg/mL

----------
# Lookup of reported MIC90 keyed by entry
Test system: Aspergillus niger
assay_method_text: Antifungal activity against Aspergillus niger MTCC 9933 after 72 hrs
Assay type: functional
condition_parameters: MTCC 9933, 72 h

Answered cases to consult:
Lab note: measured MIC90 of O=C(N[C@@H](Cc1ccc(O)cc1)C(=O)O)C(=O)c1cn(Cc2cn(Cc3ccccc3)nn2)c2ccccc12 was > 32 µg/mL

Lab note: measured MIC90 of O=C(O)CC[C@H](NC(=O)C(=O)c1cn(Cc2cn(Cc3ccccc3)nn2)c2ccccc12)C(=O)O was > 32 µg/mL

Next:
Lab note: measured MIC90 of O=C(N[C@@H](Cc1c[nH]c2ccccc12)C(=O)O)C(=O)c1cn(Cc2cn(Cc3ccccc3)nn2)c2ccccc12 was > 32 µg/mL

Lab note: measured MIC90 of COC(=O)[C@H](Cc1ccc(O)cc1)NC(=O)C(=O)c1c[nH]c2ccccc12 was > 128 µg/mL
